Target: pooled human IgG
ENDPOINT: Enzyme Activity Endpoint Assay (purified): Fab'2
// return the numeric value with its unit appended

Return reported Enzyme Activity Endpoint Assay (purified): Fab'2; argument: IdeZ2 (protein) EVVEVWPYGQNPNGKTEILSQTEDSESLQRLRDIEDFQAEKKMQNVVYTKWLDGVDVKDHDFRKIVDGNIAYYATPLLNGRGFYDINKDFNRDSDKCAAAVAANMFHYWLDINRDNVDRFLRQNPEKHGIIELPDGQLKLSDFLNTYESDHGYRDKSKLFDFISNNFNGPVWTDKLLDNYINGYAYNYKYGRTIEDPTKNTSKINFFKEVFNEKILTNNHSIRNQNEFSVLLSEALYTGKAIGLSYGPAGLRHSLGHIISVWGADLDADGNVVAIYVTDSDDKKLTIGDERVGLKRYKISTDDENRLRLTAYEETHNTGGQIRGLWTLDTGKYAWADYFDKTEQTGTDQAEQ 1340 ng/µL
